# System: ATP;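 further: ATP exposure 15 min at 22 °C before imaging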
# run description: switch fluorescence ratio, 500 uM ATP over buffer (Cy3 cluster intensity, sum of 5 cycles each) (fold (ratio)); higher = stronger signal-on switching upon ATP binding; sequences stand for … in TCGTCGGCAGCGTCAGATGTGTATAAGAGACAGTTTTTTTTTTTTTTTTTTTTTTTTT…TC
# measurement context: aptamer strand: ATP DNA aptamer (quencher-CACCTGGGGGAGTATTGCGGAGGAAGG + anchor), 100 nM annealed; ATP concentration: 500 uM
Readings of switch fluorescence ratio for the listed sequences

sequence data: TGAGAGATTG
target system: ATP;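 further: ATP exposure 15 min at 22 °C before imaging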
switch fluorescence ratio: 0.977

sequence data: CGGGTGTAGG
target system: ATP;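 further: ATP exposure 15 min at 22 °C before imaging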
switch fluorescence ratio: 1.02

sequence data: GAGTTCGCGT
target system: ATP;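 further: ATP exposure 15 min at 22 °C before imaging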
switch fluorescence ratio: 1.09

sequence data: CAAGATAGGG
target system: ATP;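 further: ATP exposure 15 min at 22 °C before imaging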
switch fluorescence ratio: 1.01

sequence data: GAGTTGAGGG
target system: ATP;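 further: ATP exposure 15 min at 22 °C before imaging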
switch fluorescence ratio: 0.973

sequence data: TTTATAGACT
target system: ATP;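 further: ATP exposure 15 min at 22 °C before imaging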
switch fluorescence ratio: 1.02

sequence data: GCTTTTTTAC
target system: ATP;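 further: ATP exposure 15 min at 22 °C before imaging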
switch fluorescence ratio: 1.38

sequence data: TCCGGTGTTT
target system: ATP;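 further: ATP exposure 15 min at 22 °C before imaging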
switch fluorescence ratio: 1.08

sequence data: GGGAGATAGC
target system: ATP;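 further: ATP exposure 15 min at 22 °C before imaging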
switch fluorescence ratio: 1.06

sequence data: GCTACGATGT
target system: ATP;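 further: ATP exposure 15 min at 22 °C before imaging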
switch fluorescence ratio: 1.01

###

# Tested on: ATP;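 further: ATP exposure 15 min at 22 °C before imaging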
# run description: switch fluorescence ratio, 500 uM ATP over buffer (Cy3 cluster intensity, sum of 5 cycles each) (fold (ratio)); higher = stronger signal-on switching upon ATP binding; sequences stand for … in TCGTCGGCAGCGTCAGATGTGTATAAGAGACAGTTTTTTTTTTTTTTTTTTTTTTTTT…TC
# measurement context: aptamer strand: ATP DNA aptamer (quencher-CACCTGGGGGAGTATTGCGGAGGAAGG + anchor), 100 nM annealed; ATP concentration: 500 uM
recorded endpoint: switch fluorescence ratio

sequence data: AGCACGTATC
recorded endpoint: switch fluorescence ratio
observed measurement: 1.09
//
sequence data: CGTTAGGGTA
recorded endpoint: switch fluorescence ratio
observed measurement: 0.991
//
sequence data: AGTGTTGCGG
recorded endpoint: switch fluorescence ratio
observed measurement: 0.952
//
sequence data: TGGGCCCATT
recorded endpoint: switch fluorescence ratio
observed measurement: 1.02
//
sequence data: TGGAGTTAGG
recorded endpoint: switch fluorescence ratio
observed measurement: 0.995
//
sequence data: TGAGAAAAAT
recorded endpoint: switch fluorescence ratio
observed measurement: 0.973
//
sequence data: AGTTTGGGTC
recorded endpoint: switch fluorescence ratio
observed measurement: 0.984
//
sequence data: CGTGAGGTGA
recorded endpoint: switch fluorescence ratio
observed measurement: 1.01
//
sequence data: CATGGAGTAC
recorded endpoint: switch fluorescence ratio
observed measurement: 1.02
//
sequence data: GCTTCCAGGG
recorded endpoint: switch fluorescence ratio
observed measurement: 1.14
//
sequence data: TTTTGACGTT
recorded endpoint: switch fluorescence ratio
observed measurement: 1.04
//
sequence data: GCCAGGGGAG
recorded endpoint: switch fluorescence ratio
observed measurement: 1.1
//
sequence data: TAATGAGTGC
recorded endpoint: switch fluorescence ratio
observed measurement: 0.997
//
sequence data: TTCTTTTTGA
recorded endpoint: switch fluorescence ratio
observed measurement: 1.43
//
sequence data: AAGCGTTAGC
recorded endpoint: switch fluorescence ratio
observed measurement: 1.01
//
sequence data: AAGGGGGTTA
recorded endpoint: switch fluorescence ratio
observed measurement: 0.991
//
sequence data: GGGTTGGTTA
recorded endpoint: switch fluorescence ratio
observed measurement: 1
//
sequence data: ACGCGCCGGG
recorded endpoint: switch fluorescence ratio
observed measurement: 1.06
//
sequence data: TTGGGTTGTG
recorded endpoint: switch fluorescence ratio
observed measurement: 1.01
//
sequence data: TACTCCATAT
recorded endpoint: switch fluorescence ratio
observed measurement: 1.14
//
sequence data: TCGTCCGGTA
recorded endpoint: switch fluorescence ratio
observed measurement: 1.29
//
sequence data: GGGGTACGGT
recorded endpoint: switch fluorescence ratio
observed measurement: 1
//
sequence data: AGGGAATGTG
recorded endpoint: switch fluorescence ratio
observed measurement: 0.987
//
sequence data: GAGCTAGAAA
recorded endpoint: switch fluorescence ratio
observed measurement: 1.05
//
sequence data: AAGTAACTC
recorded endpoint: switch fluorescence ratio
observed measurement: 1.03
//
sequence data: GACATGGTTA
recorded endpoint: switch fluorescence ratio
observed measurement: 1.02
//
sequence data: CTTAGTGGGG
recorded endpoint: switch fluorescence ratio
observed measurement: 0.962
//
sequence data: ATCTATGGTT
recorded endpoint: switch fluorescence ratio
observed measurement: 0.967
//
sequence data: CTGGGGTTGC
recorded endpoint: switch fluorescence ratio
observed measurement: 0.96
//
sequence data: ATATTGGAAG
recorded endpoint: switch fluorescence ratio
observed measurement: 1.01
//
sequence data: TCGACTGTTT
recorded endpoint: switch fluorescence ratio
observed measurement: 1.03
//
sequence data: AGGCTGGTCT
recorded endpoint: switch fluorescence ratio
observed measurement: 0.952
//
sequence data: AAAAACGCTA
recorded endpoint: switch fluorescence ratio
observed measurement: 1.14
//
sequence data: AGCCAGGGGG
recorded endpoint: switch fluorescence ratio
observed measurement: 1.03
//
sequence data: TTCCCACTAT
recorded endpoint: switch fluorescence ratio
observed measurement: 1.02
//
sequence data: ACGCGTCGGC
recorded endpoint: switch fluorescence ratio
observed measurement: 1.06
//
sequence data: GCGTCAAGTG
recorded endpoint: switch fluorescence ratio
observed measurement: 0.988
//
sequence data: GTTTGATGGG
recorded endpoint: switch fluorescence ratio
observed measurement: 0.981
//
sequence data: AAGTACGTTC
recorded endpoint: switch fluorescence ratio
observed measurement: 1.25
//
sequence data: TAGGGGCTCG
recorded endpoint: switch fluorescence ratio
observed measurement: 0.999
//
sequence data: GTCGGGGGTT
recorded endpoint: switch fluorescence ratio
observed measurement: 1.02
//
sequence data: AGGGAGGGAT
recorded endpoint: switch fluorescence ratio
observed measurement: 1.01
//
sequence data: AAGGTCGGGA
recorded endpoint: switch fluorescence ratio
observed measurement: 0.997
